- Study Target: Recombinant human Gal3 (rhGal3) (TrueBinding, #QC200361) (human, UniProt P17931 2-250); note: test concentration or dose not given here
- Test Protocol: cell-based or functional assay
Items are presented alongside their recorded % inhibition of TNFα secretion.
Test Readout: % inhibition of TNFα secretion (%)

{"Binder": "F849C.8D10 (antibody, human IgG4 S228P, kappa, V domains shown) VH: QVQLQQTGAELVKPGASVKLSCKASGYTFTSYWINWVKQRPGQGLEWIGNIYPGSSSIYYSEKFKSKATLTVDTSSSTAYMQLSSLTSDDSAVYYCARWGYWGQGTTLTVSS VL: DVLMTQTPLSLPVSLGDQASISCRSSQDIVHSSGNTYLEWYLQKPGQSLKLLIYKVSNRFSGVPDRFSASGSGTDFTLKISRVEAEDLGVYYCFQGSHVPPTFGSGTKLEIKR", "Recorded Result": -5.5}
{"Binder": "15G7.2A7 (antibody, human IgG4 S228P, kappa, V domains shown) VH: EVQLQQSGPELVKPGASVKISCKASGYTFTDYYMNWVKQSHGKSLEWIGDINPNNGGTNYNQKFKGKATLTVDKSSSTAYMELRSLTSEDSAVYYCTSGYGFPYWGQGTLVTVSA VL: DIQMNQSPSSLSASLGDTISITCRASQNINIWLSWYQQKPGNIPQLLIYKASNLHTGVPSRFSGSGSGTDFTLTISSLQPEDIATYYCLQGQSYPLTFGAGTKLVMKR", "Recorded Result": 46.1}
{"Binder": "846.2B11 (antibody, human IgG4 S228P, kappa, V domains shown) VH: QVQLQQSGPELVRPGALVKISCKASGYTFTSYDINWVKQRPGQGLEWIGWIYPGDGSTKYNEKFKGKATLTADKSSSTAYMQLSSLTSENSAVYFCAREAASNAMDYWGQGTSVTVSS VL: DIVLTQSPASLGVSLGQRATISCRASKSVSTSGYSYMHWYQQKPGQPPKLLIYLASILESGVPARFSGSGSGTDFTLNIHPVEEEDAAIYYCQHSRELPLTFGAGTKLELKR", "Recorded Result": -98}
